target: Glucagon receptor (Homo sapiens, UniProt P47871); experiment: biochemical; type: cell-based, CHO
Sequence (P47871 whole entry): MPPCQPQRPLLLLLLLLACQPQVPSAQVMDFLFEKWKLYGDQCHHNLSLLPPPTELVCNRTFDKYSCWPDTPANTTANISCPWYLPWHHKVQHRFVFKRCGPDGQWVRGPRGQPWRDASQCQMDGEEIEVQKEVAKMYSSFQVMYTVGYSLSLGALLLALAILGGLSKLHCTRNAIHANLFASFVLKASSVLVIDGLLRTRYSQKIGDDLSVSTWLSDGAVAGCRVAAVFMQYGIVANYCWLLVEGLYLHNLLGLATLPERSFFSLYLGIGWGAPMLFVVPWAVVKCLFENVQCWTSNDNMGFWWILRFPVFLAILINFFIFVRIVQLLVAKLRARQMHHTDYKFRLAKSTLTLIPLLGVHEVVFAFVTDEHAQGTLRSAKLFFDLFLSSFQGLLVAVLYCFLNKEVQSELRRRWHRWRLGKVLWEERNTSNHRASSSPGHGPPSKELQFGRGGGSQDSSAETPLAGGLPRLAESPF
Description: Binding affinity determined by reduction in binding of 125 I-glucagon to the human glucagon receptor expressed on CHO cells in absence of Mg+2
Class assignment keyed on IC50, ranges lower level = under 40 nM, middle level = from 40 nM up to 100 nM, upper level = 100 nM and over

In [3]: df
Out[3]:
                                    compound  classification
 0  COc1ccccc1-c1cc(-c2ccc(Cl)cc2)[nH]c1-c1ccncc1    middle level
 1  Clc1ccc(-c2cc(-c3cccc(Br)c3)c(-c3ccncc3)[nH]2)cc1     upper level
 2  COc1ccc(-c2cc(-c3ccc(F)cc3)c(-c3ccncc3)[nH]2)cc1     upper level
 3  Cc1ccc(-c2cc(-c3ccc(F)cc3)c(-c3ccncc3)[nH]2)cc1     upper level
 4  CC(C)COc1ccccc1-c1cc(-c2ccc(Cl)cc2)[nH]c1-c1ccncc1     lower level
 5      Cc1cc(-c2ccc(F)cc2)c(-c2ccncc2)[nH]1     upper level
 6  CC(C)(C)c1ccc(-c2cc(-c3ccc(F)cc3)c(-c3ccncc3)[nH]2)cc1     upper level
 7  CCCOc1cc(Br)ccc1-c1cc(-c2ccc(Cl)cc2)[nH]c1-c1ccncc1     lower level
 8  O=C(OCc1ccccc1)c1cc(-c2ccc(Cl)cc2)[nH]c1-c1ccncc1    middle level
 9  CCCOc1ccc(Cl)cc1-c1cc(-c2ccc(Cl)cc2)[nH]c1-c1ccncc1     lower level
10  CCc1ccc(-c2cc(-c3ccc(F)cc3)c(-c3ccncc3)[nH]2)cc1     upper level
11  CCCNc1ccccc1-c1cc(-c2ccc(Cl)cc2)[nH]c1-c1ccncc1     lower level
12  CCCOc1ccc(Br)cc1-c1cc(-c2ccc(Cl)cc2)[nH]c1-c1ccncc1     lower level
13  CC(C)Oc1ccccc1-c1cc(-c2ccc(Cl)cc2)[nH]c1-c1ccncc1     lower level
14  Clc1ccc(-c2cc(-c3ccccc3)c(-c3ccncc3)[nH]2)cc1    middle level
15  O=C(NCc1ccccc1)c1cc(-c2ccc(Cl)cc2)[nH]c1-c1ccncc1     upper level
16  Fc1ccc(-c2cc(-c3ccc(Cl)cc3)[nH]c2-c2ccncc2)cc1    middle level
17  Clc1ccc(-c2cc(-c3ccc(Br)cc3)c(-c3ccncc3)[nH]2)cc1     upper level
18  C=CCOc1ccccc1-c1cc(-c2ccc(Cl)cc2)[nH]c1-c1ccncc1     lower level
19  O=C(O)c1ccc(-c2cc(-c3ccc(F)cc3)c(-c3ccncc3)[nH]2)cc1     upper level
20  Clc1ccc(-c2cc(-c3ccc(Cl)cc3)c(-c3ccncc3)[nH]2)cc1     upper level
21  C[S+]([O-])c1ccc(-c2cc(-c3ccc(F)cc3)c(-c3ccncc3)[nH]2)cc1 (stereo not drawn)     upper level
22  CCOC(=O)c1cc(-c2ccc(Cl)cc2)[nH]c1-c1ccncc1    middle level

----------
target: UniProt Q61606; assay: Binding affinity towards glucagon receptor determined by reduction in binding of [125I]glucagon to the murine glucagon receptor (GGR) expressed on CHO cells in absence of Mg+2; type: cell-based
Sequence (Q61606 whole entry): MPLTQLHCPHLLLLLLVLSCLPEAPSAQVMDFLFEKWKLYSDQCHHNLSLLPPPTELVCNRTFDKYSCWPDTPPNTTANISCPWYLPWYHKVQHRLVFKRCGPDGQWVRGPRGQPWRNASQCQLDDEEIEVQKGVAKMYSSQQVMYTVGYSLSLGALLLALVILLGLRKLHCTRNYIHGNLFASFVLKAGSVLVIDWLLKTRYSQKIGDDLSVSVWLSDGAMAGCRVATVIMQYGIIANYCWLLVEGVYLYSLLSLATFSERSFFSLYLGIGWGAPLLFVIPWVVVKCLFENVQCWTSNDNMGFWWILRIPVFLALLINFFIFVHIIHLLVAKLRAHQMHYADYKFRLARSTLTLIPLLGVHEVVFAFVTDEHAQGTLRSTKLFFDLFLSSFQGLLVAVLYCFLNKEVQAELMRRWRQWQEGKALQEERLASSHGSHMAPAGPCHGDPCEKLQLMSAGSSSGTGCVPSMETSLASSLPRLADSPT
pIC50: −log10 of the molar value.
Entry flag: Criterion met if pIC50 reaches 7; Criterion not met if it does not.

                             substancesmiles     classification
 0  Clc1ccc(-c2cc(C3CCCCC3)c(-c3ccncc3)[nH]2)cc1      Criterion met
 1  CCCOc1cc(Br)ccc1-c1cc(-c2ccc(Cl)cc2)[nH]c1-c1ccncc1      Criterion met
 2  COc1ccc(-c2cc(-c3ccc(Cl)cc3)[nH]c2-c2ccncc2)cc1  Criterion not met
 3  O=C(OCc1ccccc1)c1cc(-c2ccc(Cl)cc2)[nH]c1-c1ccncc1  Criterion not met
 4  CCCOc1ccccc1-c1cc(-c2ccc(Cl)cc2)[nH]c1-c1ccncc1      Criterion met
 5  C=CCOc1ccccc1-c1cc(-c2ccc(Cl)cc2)[nH]c1-c1ccncc1  Criterion not met
 6  Fc1ccc(-c2cc(C3CCCCC3)[nH]c2-c2ccncc2)cc1  Criterion not met
 7  CCCCCCOc1ccccc1-c1cc(-c2ccc(Cl)cc2)[nH]c1-c1ccncc1  Criterion not met
 8  Fc1ccc(-c2cc(-c3ccc(Cl)cc3Cl)[nH]c2-c2ccncc2)cc1  Criterion not met
 9  CCCOc1cccc(OCCC)c1-c1cc(-c2ccc(Cl)cc2)[nH]c1-c1ccncc1  Criterion not met
10  Fc1ccc(-c2cc(-c3ccc(Cl)cc3)[nH]c2-c2ccncc2)cc1  Criterion not met
11  Fc1ccc(-c2cc(-c3ccc(F)cc3)c(-c3ccncc3)[nH]2)cc1  Criterion not met
12  CCOc1ccccc1-c1cc(-c2ccc(Cl)cc2)[nH]c1-c1ccncc1  Criterion not met
13  Clc1ccc(-c2cc(-c3ccc(Cl)cc3)c(-c3ccncc3)[nH]2)cc1  Criterion not met
14  COc1ccccc1-c1cc(-c2ccc(Cl)cc2)[nH]c1-c1ccncc1  Criterion not met
15  CCOC(=O)c1cc(-c2ccc(Cl)cc2)[nH]c1-c1ccncc1  Criterion not met
16  CCCOc1ccc(Cl)cc1-c1cc(-c2ccc(Cl)cc2)[nH]c1-c1ccncc1      Criterion met

----------
biological target: Glucagon receptor (Homo sapiens); assay: biochemical; type: cell-based, CHO
Recorded IC50 for the following molecules
reportedMetric: IC50 (nM)

>>> print(df.to_string())
                            substancesmiles  reading
0  Fc1ccc(-c2cc(-c3cccc(Cl)c3)[nH]c2-c2ccncc2)cc1       40
1  CCOc1ccccc1-c1cc(-c2ccc(Cl)cc2)[nH]c1-c1ccncc1       40
2  Clc1ccc(-c2cc(C3CCCCC3)c(-c3ccncc3)[nH]2)cc1      100
3  Fc1ccc(-c2cc(-c3ccc(Cl)cc3Cl)[nH]c2-c2ccncc2)cc1       40
4  CCCOc1cccc(OCCC)c1-c1cc(-c2ccc(Cl)cc2)[nH]c1-c1ccncc1       40
